- CONDITION_NOTES: in isopropanol, 293.15 K
REPORTED_METRIC: solubility (mole fraction)

1. O=P(O)(O)c1ccccc1 = 0.277

====

- CONDITION_NOTES: in n-octanol, 313.15 K
REPORTED_METRIC: solubility (mole fraction)

1) O=P(O)(O)c1ccccc1 = 0.189

====

- CONDITION_NOTES: in n-butanol, 288.15 K
REPORTED_METRIC: solubility (mole fraction)

1. O=P(O)(O)c1ccccc1 = 0.22

====

- CONDITION_NOTES: in n-heptanol, 308.15 K
REPORTED_METRIC: solubility (mole fraction)

1. O=P(O)(O)c1ccccc1 = 0.196

Hey, just so you know, these numbers are from BigSolDB 2.1.
